System: Caenorhabditis elegans
ASSAY_PROCEDURE: In vitro nematode test
MEASUREMENT_PARAMETERS: Caenorhabditis elegans, 168 h, concentration at which reproduction is prevented; 7 days at 22°C; read-out: Dosis effectiva
Kindly supply the reported minimal effective concentration values for the records listed here.
Answers are plain numbers, in µg/mL.

>  <MOLECULE>
CN1C(=O)C(C(=O)Nc2ccc(SC(F)(F)F)cc2)C(=O)N(C)P1(=S)Oc1ccc(Cl)cc1 (stereo not shown)

>  <minimal effective concentration (µg/mL)>
100

$$$$
>  <MOLECULE>
CN1C(=O)C(C(=O)Nc2ccccc2SC(F)(F)F)C(=O)N(C)P1(=O)Oc1ccccc1 (stereo not shown)

>  <minimal effective concentration (µg/mL)>
100

$$$$
>  <MOLECULE>
CCN1C(=O)C(C(=O)Nc2ccc(Cl)c(C(F)(F)F)c2)C(=O)N(C)P1(=O)Oc1cccc(Cl)c1 (stereo not shown)

>  <minimal effective concentration (µg/mL)>
10

$$$$
>  <MOLECULE>
CN1C(=O)C(C(=O)Nc2ccc(S(=O)(=O)C(F)(F)F)cc2)C(=O)N(C)P1(=O)Oc1ccccc1 (stereo not shown)

>  <minimal effective concentration (µg/mL)>
10

$$$$
>  <MOLECULE>
CCN1C(=O)C(C(=O)Nc2ccc(C(F)(F)F)c(C(F)(F)F)c2)C(=O)N(C)P1(=O)Oc1cccc(Cl)c1 (stereo not shown)

>  <minimal effective concentration (µg/mL)>
10

$$$$

I would be grateful if you could provide minimal effective concentration for each of the following entries.
1. CN1C(=O)C(C(=O)Nc2ccc(OC(F)(F)F)cc2)C(=O)N(C)P1(=O)Oc1ccccc1 (stereo not shown)
2. CCN1C(=O)C(C(=O)Nc2ccc(C(F)(F)F)c(Cl)c2)C(=O)N(C)P1(=O)Oc1cccc(Cl)c1 (stereo not shown)
3. CC(C)N1C(=O)C(C(=O)Nc2ccc(SC(F)(F)F)cc2)C(=O)N(C)P1(=O)Oc1cccc(Cl)c1 (stereo not shown)
4. CCN1C(=O)C(C(=O)Nc2ccc(C(F)(F)F)cc2C(F)(F)F)C(=O)N(C)P1(=O)Oc1cccc(Cl)c1 (stereo not shown)
5. COc1ccc(NC(=O)C2C(=O)N(C)P(=O)(Oc3ccc(C)cc3)N(C)C2=O)cc1 (stereo not shown)
6. CC(C)N1C(=O)C(C(=O)Nc2ccc(C(F)(F)F)cc2C(F)(F)F)C(=O)N(Cc2ccccc2)P1(=O)Oc1cccc(Cl)c1 (stereo not shown)

Result string:
1: 10; 2: 10; 3: 10; 4: 10; 5: 10; 6: 100

I would be grateful if you could provide minimal effective concentration for each of the following entries.
1. CCN1C(=O)C(C(=O)Nc2ccc(Oc3ccc(C(F)(F)F)cc3)cc2)C(=O)N(C)P1(=O)Oc1cccc(Cl)c1 (stereo not shown)
2. CN1C(=O)C(C(=O)Nc2ccc(SC(F)(F)F)cc2)C(=O)N(C)P1(=S)Oc1ccccc1 (stereo not shown)

Result string:
[10, 10]
